molecular target: human Dopamine D2L receptor (Homo sapiens); construct: expressed in transfected cells; host or cells: CHO cells; assay: In vitro binding affinity for human D2L receptor ([3H]Spiperone binding); details: human D2L receptor-transfected CHO cell membranes, read-out: D2L pIC50 (converted)
Sequence (P14416 whole entry): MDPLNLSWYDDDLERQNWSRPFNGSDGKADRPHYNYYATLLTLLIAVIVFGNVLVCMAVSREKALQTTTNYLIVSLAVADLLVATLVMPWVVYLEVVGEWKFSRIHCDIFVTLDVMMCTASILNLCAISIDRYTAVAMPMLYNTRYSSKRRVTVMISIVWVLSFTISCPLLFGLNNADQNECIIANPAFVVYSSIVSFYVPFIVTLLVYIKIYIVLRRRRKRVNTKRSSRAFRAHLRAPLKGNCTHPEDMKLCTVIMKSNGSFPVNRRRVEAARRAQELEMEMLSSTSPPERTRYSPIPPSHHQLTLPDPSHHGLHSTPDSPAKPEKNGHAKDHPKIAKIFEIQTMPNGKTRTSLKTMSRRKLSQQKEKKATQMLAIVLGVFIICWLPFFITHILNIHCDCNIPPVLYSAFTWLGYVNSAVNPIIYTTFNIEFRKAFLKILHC
IC50 values for the compounds below.
The figure you give is taken to be in nM; do not add the unit.

Study these solved cases before continuing.
Task: Record request: IC50 value, item COc1cccc(OC2CCN(CC3CC4c5ccccc5Cc5ccc(F)cc5C4O3)C2)c1 (mixture of isomers) [Compound 31]
Output: 13.5

Task: Record request: IC50 value, item O=C(Nc1ccc2c(c1)CCC2)NC1CCN(CC2CC3c4ccccc4Cc4ccc(F)cc4C3O2)CC1 (stereo not shown) [Compound 238]
Output: 21.4

Task: Record request: IC50 value, item O=C(NC1CCCCC1)C1CCN(CC2CC3c4ccccc4Cc4ccc(F)cc4C3O2)CC1 (stereo not shown) [Compound 188]
Output: 9.77

Task: Record request: IC50 value, item O=C(NC1CCN(C[C@H]2C[C@@H]3c4ccccc4Cc4ccc(F)cc4[C@@H]3O2)CC1)OCc1ccccc1Cl [Compound 218]
Output: 10.2

Task: Record request: IC50 value, item O=S(=O)(c1ccccc1)n1cccc1CN1CCN(CC2CC3c4ccccc4Cc4ccc(F)cc4C3O2)CC1 (stereo not shown) [Compound 68]
Output: 91.2

Task: Record request: IC50 value, item CCOC(=O)CC1CCN(CC2CC3c4ccccc4Cc4ccc(F)cc4C3O2)CC1 (stereo not shown) [Compound 164]
Output: 2.88

---
Task: Record request: IC50 value, item CCNC(=O)OCC1CCN(CC2CC3c4ccccc4Cc4ccc(F)cc4C3O2)C1 (mixture of isomers) [Compound 20]
Output: 3.63
